# TARGET OR TEST SYSTEM: cathepsin B (Homo sapiens)
# Construct: purchased Calbiochem 219364
# EXPERIMENT: Inhibition of cathepsin B
# Format: biochemical
# TEST PARAMETERS: 1 uM; Cbz-Phe-Arg-AMC 0.1 mM, pH 6.0
Can you tell me Cat B % I @ 1 uM for the items I'm about to list?

**Query** Data request, read-out Cat B % I @ 1 uM, for CC(C)CC(CC(=O)N1CCc2ccccc2C1)C(=O)N[C@H](C=O)Cc1ccccc1 (single isomer, unassigned) [Compound 16f-I, 2-THIQ-COCH2 CH(iBu)Cd-Phe-H]
**Result** 100%

**Query** For CC(C)CC(CC(=O)N1CCc2ccccc2C1)C(=O)N[C@H](C=O)Cc1ccccc1 (single isomer, unassigned) [Compound 16f-II] then?
**Result** 71%

**Query** Note, next up: CC(C)CC(CC(=O)N1CCN(c2ccccc2)CC1)C(=O)N[C@H](C=O)CC(C)C (single isomer, unassigned) [Compound 16g-II, Ph-Piperazine-COCH2 CH(iBu)CO-Leu-H]
**Result** 67%

**Query** CC(C)CC(CC(=O)N1CCN(c2ccccc2)CC1)C(=O)N[C@H](C=O)CC(C)C (single isomer, unassigned) [Compound 16g-I, Ph-Piperazine-COCH2 CH(iBu)CO-Leu-H] ?
**Result** 100%
